test_description: Stability of the compound assessed as compound remaining after 48 hrs by HPLC analysis
Format: physicochemical
condition: read-out: Stability
Consider the following compounds; for each one, report its remaining at 48 h.

Ask: What does the record list as remaining at 48 h for O=c1c(O)c(-c2ccc(O)cc2O)oc2cc(O)cc(O)c12 ?
Result: > 80%

Ask: What value of remaining at 48 h has been recorded for this entry: O=c1c(O)c(-c2ccccc2O)oc2cc(O)cc(O)c12
Result: > 80%
